test_target: recombinant guanylate cyclase reporter cell line (Rattus norvegicus, UniProt P19686+P20595)
Construct: expressed in transfected cells
Sequence (P20595 whole entry): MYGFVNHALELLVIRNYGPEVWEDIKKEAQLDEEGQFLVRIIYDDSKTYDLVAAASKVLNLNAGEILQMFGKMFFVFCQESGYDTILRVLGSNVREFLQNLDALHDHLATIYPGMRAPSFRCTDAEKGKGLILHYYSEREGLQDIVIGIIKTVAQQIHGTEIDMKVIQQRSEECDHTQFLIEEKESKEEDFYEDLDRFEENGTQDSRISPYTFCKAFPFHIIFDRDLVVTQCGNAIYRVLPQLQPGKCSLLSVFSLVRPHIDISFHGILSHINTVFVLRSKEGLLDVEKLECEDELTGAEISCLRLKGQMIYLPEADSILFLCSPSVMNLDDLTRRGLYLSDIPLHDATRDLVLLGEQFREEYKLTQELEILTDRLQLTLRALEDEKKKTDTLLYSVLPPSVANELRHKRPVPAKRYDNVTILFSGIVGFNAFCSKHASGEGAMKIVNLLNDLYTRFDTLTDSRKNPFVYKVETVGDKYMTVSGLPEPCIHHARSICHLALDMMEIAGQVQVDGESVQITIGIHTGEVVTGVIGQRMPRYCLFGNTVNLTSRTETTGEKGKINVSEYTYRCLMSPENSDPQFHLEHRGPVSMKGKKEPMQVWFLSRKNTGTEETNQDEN
Sequence (P19686 whole entry): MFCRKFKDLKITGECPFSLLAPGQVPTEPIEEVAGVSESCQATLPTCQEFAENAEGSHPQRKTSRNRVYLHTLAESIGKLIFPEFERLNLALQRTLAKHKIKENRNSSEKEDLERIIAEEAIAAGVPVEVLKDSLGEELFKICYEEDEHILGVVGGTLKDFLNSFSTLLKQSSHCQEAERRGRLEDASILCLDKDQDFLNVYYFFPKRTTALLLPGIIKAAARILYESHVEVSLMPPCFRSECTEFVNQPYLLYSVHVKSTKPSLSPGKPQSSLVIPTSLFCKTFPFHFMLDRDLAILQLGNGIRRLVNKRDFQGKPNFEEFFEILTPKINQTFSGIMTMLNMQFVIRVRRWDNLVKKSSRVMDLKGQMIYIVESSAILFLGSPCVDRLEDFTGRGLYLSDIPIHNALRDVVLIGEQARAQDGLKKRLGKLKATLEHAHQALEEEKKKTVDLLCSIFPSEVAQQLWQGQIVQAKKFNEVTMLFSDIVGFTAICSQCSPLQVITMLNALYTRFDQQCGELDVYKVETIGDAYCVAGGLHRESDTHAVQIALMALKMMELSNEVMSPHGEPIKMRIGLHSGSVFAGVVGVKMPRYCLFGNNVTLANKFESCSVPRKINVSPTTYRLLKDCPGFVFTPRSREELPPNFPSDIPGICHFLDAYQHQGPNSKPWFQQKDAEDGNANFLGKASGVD
protocol: Action on recombinant guanylate cyclase reporter cell line
Type: cell-based
particulars: in some cases mean values obtained from individual determinations
# MEC (minimal effective concentration) per entry
The figure you give is taken to be in µM; do not add the unit.

Solved cases (2 shown):
Cc1nc2c(OCC3CCCCC3)cccn2c1C(=O)N[C@@H]1CCCC[C@H]1O (racemic) [Example 78] : 0.3
Cc1nc2c(OCc3c(F)cccc3F)cccn2c1C(=O)NC(CO)c1cccnc1 (racemic) [Example 124] : 0.3

// MEC (minimal effective concentration) lookup, key: Cc1nc2c(OCc3c(F)cccc3F)cc(Cl)cn2c1C(=O)N[C@@H](CO)CCO [Example 128]
0.3

The reported measurements were obtained from patent US8946215B2.
